IC50 in human protease assay (modified, decreased TIMP-1 and MMP-1) values, listed per item
Target: human TIMP-1 (human, UniProt P01033 24-207)
Test: cell-based or functional assay
Please respond with the number in nM and leave the unit unwritten.

MS-BW-44-2-4 (Fab, V domains shown, Fab from HCDR3 optimization of MS-BW-44-2) VH: QVQLVESGGGLVQPGGSLRLSCAASGFTFSSYAMSWVRQAPGKGLEWVSGISGNGVLIFYADSVKGRFTISRDNSKNTLYLQMNSLRAEDTAVYYCARGLMDYWGQGTLVTVSS VL: DIALTQPASVSGSPGQSITISCTGTSSDVGGYNYVSWYQQHPGKAPKLMIYDVSNRPSGVSNRFSGSKSGNTASLTISGLQAEDEADYYCQSYDFVRFMVFGGGTKLTVLG ... 0.2
MS-BW-44-2-16 (Fab, V domains shown, Fab) VH: QVQLVESGGGLVQPGGSLRLSCAASGFTFSSYAMSWVRQAPGKGLEWVSGISGNGVLIFYADSVKGRFTISRDNSKNTLYLQMNSLRAEDTAVYYCARWFDVWGQGTLVTVSS VL: DIALTQPASVSGSPGQSITISCTGTSSDVGGYNYVSWYQQHPGKAPKLMIYDVSNRPSGVSNRFSGSKSGNTASLTISGLQAEDEADYYCQSYDFVRFMVFGGGTKLTVLG ... 0.3

Continue with the binder presented below.
The value of IC50 in human protease assay (modified, decreased TIMP-1 and MMP-1) measured for the binder MS-BW-44-2 (Fab, V domains shown, Fab; MS-BW-44 with a modified HCDR2 cassette) VH: QVQLVESGGGLVQPGGSLRLSCAASGFTFSSYAMSWVRQAPGKGLEWVSGISGNGVLIFYADSVKGRFTISRDNSKNTLYLQMNSLRAEDTAVYYCARFLDIWGQGTLVTVSS VL: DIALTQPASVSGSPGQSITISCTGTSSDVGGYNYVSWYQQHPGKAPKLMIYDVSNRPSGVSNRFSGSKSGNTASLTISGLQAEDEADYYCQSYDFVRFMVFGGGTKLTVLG turned out to be 0.4
